biological target: Tyrosine-protein kinase ABL1 (Homo sapiens, UniProt P00519, Q252H); assay: Inhibition of Abl1 kinase Q252H mutant (unknown origin)
Property: pIC50; scope: individual molecules
Quick note: pIC50 values are minus log10 of concentrations in mol/L.

Answered examples (3):
CN1CCN(Cc2ccc(NC(=O)Nc3cc(C#Cc4cnc5cnccn45)n(C)n3)cc2C(F)(F)F)CC1 : 9.00
CN1CCN(Cc2ccc(NC(=O)Nc3cc(C#Cc4cnc5cccnn45)n(C)n3)cc2C(F)(F)F)CC1 : 9.15
CN1CCN(Cc2ccc(NC(=O)Nc3cc(C#Cc4cncc5nccn45)n(C)n3)cc2C(F)(F)F)CC1 : 8.80

Value lookup for pIC50; key = Cc1ccc(C(=O)Nc2ccc(CN3CCN(C)CC3)c(C(F)(F)F)c2)cc1C#Cc1cncc2nccn12
9.30
